Measured On: wheat germ agglutinin (WGA)
Protocol Notes: imaging STD NMR, initial slopes (STD-AF0), Langmuir fit
Measured Property: pKd
A value of pKd is the negative decimal logarithm of a concentration given in moles per litre.

Data request: Look up pKd of CC(=O)N[C@H]1C(O)O[C@H](CO)[C@@H](O)[C@@H]1O (stereo partly shown) [GlcNAc] and report it.
Data returned: 2.65

FYI, the data here is from paper PMC10401705.
